assay: Nuclear factor erythroid 2-related factor 2/antioxidant responsive element (Nrf2/ARE) small molecule agonists: luciferase reporter gene qHTS assay in human keratinocytes (AID 1919969); conditions: KeratinoSens HaCaT ARE-luciferase, luminescence, 24 h; series mostly up to 92.4 µM; further: nearly all actives have a fitted effect of over 35% in size; further: potency means the concentration at half of the fitted maximal effect
Results filed as inconclusive are left out. Activity calls are given as the source filed them. The call rests on the fitted dose curve.
reported.metric: Potency

molecule | Potency
CCN(CC)CCOC(=O)C(O)(c1ccccc1)c1ccccc1 | inactive
CSC1=N[C@@](C)(c2ccccc2)C(=O)N1Nc1ccccc1 | inactive
CCCN(CC1CC1)c1c([N+](=O)[O-])cc(C(F)(F)F)cc1[N+](=O)[O-] | 48.6 µM (active)
CC(C)(N)Cc1ccc(Cl)cc1 | inactive
CC(C)c1c(CN(C)C(C)Cc2ccccc2)n(C)n(-c2ccccc2)c1=O (stereo not given) | inactive
CN1C(=O)COc2c(C(=O)NC3CN4CCC3CC4)cc(Cl)cc21 (stereo not given) | inactive
CCCOc1nn(C(=O)NS(=O)(=O)c2ccccc2C(=O)OC)c(=O)n1C | 68.3 µM (active)
C=CC(=C)C | inactive
O=S1(=O)OC(c2cc(Br)c(O)c(Br)c2)(c2cc(Br)c(O)c(Br)c2)c2ccccc21 | inactive
COc1ccc([N+](=O)[O-])cc1O | inactive

Potency for CC(C)(COCC1CO1)COCC1CO1 (stereo not given) is 68.6 µM (active)

Potency for CNC(=O)Oc1cc(C)c(SC)c(C)c1 is inactive

Potency for Cc1cc(C)cc(OP(=O)(Oc2cc(C)cc(C)c2)Oc2cc(C)cc(C)c2)c1 is inactive

Potency for O=S(=O)(Cl)c1ccccc1 is inactive

Potency for OC(c1ccc(F)cc1)(c1cncnc1)c1ccccc1Cl (stereo not given) is inactive
